molecular target: Human Factor D (Homo sapiens, UniProt P00746); construct: purified from human serum; purchased Complement Technology, Inc; host or cells: human serum (natural protein, not recombinant); assay: Human Factor D Assay; assay type: biochemical; details: Table 3; Human Factor D 80 nM, substrate Z-L-Lys-SBzl; read-out: (IC50 (Stars))
Sequence (P00746 26-253): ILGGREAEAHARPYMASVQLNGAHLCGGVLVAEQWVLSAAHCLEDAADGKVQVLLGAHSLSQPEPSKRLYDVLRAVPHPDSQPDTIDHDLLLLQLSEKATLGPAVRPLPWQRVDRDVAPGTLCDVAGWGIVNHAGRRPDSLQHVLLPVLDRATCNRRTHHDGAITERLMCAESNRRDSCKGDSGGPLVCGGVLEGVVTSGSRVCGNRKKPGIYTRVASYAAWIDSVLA
pIC50: −log10 of the molar value.
OBSERVED PROPERTY: pIC50

These recorded examples may help you get a feel for the data.
Sure, the documented pIC50 for CC(=O)c1nn(CC(=O)N2C[C@H](F)C[C@H]2C(=O)Nc2cncc(Br)n2)c2ccc(Oc3ncc(C)cn3)cc12 is > 6.00

Sure, the documented pIC50 for CC(=O)c1nn(CC(=O)N2[C@H](C(=O)Nc3cccc(Br)n3)C[C@@]3(C)C[C@@H]23)c2cc(OCP(=O)(O)O)ccc12 is > 6.00

Sure, the documented pIC50 for CC(=O)c1nn(CC(=O)N2C[C@H](F)C[C@H]2C(=O)Nc2cccc(Br)n2)c2ccc(Oc3cnc(C)cn3)cc12 is > 6.00

Sure, the documented pIC50 for CC(=O)c1cn(CC(=O)N2[C@@H]3C[C@@H]3C[C@H]2C(=O)Nc2cncc(Br)n2)c2ccc(Oc3ncc(F)cn3)cc12 is > 6.00

Sure, the documented pIC50 for Cc1cccc(NC(=O)[C@@H]2[C@H]3CC[C@H](C3)N2C(=O)Cn2cc(C(N)=O)c3cc(OCP(=O)(O)O)ccc32)n1 is < 5.00

Next item in the queue.
Sure, the documented pIC50 for CC(=O)c1cn(CC(=O)N2C[C@H](F)C[C@H]2C(=O)NCc2cccc(Cl)c2F)c2ccc(OCS(=O)(=O)NC(C)(C)C)cc12 is > 6.00
